Documented pIC50 across a set of molecules
# Study system: Guanine deaminase (GDA) (Homo sapiens)
# Sequence (Q9Y2T3 1-454): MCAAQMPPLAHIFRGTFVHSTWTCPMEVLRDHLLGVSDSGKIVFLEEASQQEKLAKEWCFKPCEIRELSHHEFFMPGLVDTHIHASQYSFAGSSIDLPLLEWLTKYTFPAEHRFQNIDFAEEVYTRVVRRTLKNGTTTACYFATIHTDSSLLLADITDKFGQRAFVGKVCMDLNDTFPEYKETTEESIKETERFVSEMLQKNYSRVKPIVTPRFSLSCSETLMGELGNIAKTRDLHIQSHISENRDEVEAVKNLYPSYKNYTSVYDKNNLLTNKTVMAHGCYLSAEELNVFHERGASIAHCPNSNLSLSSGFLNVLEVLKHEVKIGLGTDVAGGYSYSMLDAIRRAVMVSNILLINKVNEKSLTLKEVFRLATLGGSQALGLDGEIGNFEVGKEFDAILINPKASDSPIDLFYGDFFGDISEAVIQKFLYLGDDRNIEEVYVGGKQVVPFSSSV
pIC50: −log10 of the molar value.
Reported metric: pIC50

> print(dat)
                                   molecule  reported.result
1  NC(=O)c1nscc1N [ATCA, 4-aminoisothiazole-3-carboxamide]             4.10
2  NC(=O)c1[nH]cnc1N [AICA, 5-aminoimidazole-4-carboxamide]             4.00
3  O=C(O)c1c[nH]cn1 [ICA, 4-imidazolecarboxylic acid]             2.70
